Target: T1, Human CD19-his protein (human, UniProt P15391 20-291)
T1 construct: bought protein; also called human CD19 protein; recombinant human CD19-His; not shown: His tag
T1 sequence (looked up): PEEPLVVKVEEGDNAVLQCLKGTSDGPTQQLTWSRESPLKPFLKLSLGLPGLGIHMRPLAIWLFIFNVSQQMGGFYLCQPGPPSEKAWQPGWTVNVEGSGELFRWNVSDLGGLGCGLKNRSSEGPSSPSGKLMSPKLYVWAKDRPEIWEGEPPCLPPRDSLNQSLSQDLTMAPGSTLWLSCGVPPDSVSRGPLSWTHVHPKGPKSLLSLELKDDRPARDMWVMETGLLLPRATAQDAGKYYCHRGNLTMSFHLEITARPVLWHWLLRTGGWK
Assay: ELISA, antibody at 0.10 nM
test_readout: OD450
Please reply with the number alone, leaving off any unit.

Recall and state the measured OD450 for F3.81.2 (antibody, human IgG1, V domains shown, human-murine chimeric antibody, human IgG1) VH: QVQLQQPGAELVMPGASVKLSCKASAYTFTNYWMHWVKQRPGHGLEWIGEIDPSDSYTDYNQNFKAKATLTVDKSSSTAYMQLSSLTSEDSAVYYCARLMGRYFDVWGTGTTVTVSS VL: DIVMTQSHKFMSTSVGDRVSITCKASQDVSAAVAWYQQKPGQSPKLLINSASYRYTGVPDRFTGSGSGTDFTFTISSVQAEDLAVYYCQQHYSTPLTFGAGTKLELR .
0.24

Next:
# return recorded OD450 for input F3.133.14 (antibody, human IgG1, V domains shown, human-murine chimeric antibody, human IgG1) VH: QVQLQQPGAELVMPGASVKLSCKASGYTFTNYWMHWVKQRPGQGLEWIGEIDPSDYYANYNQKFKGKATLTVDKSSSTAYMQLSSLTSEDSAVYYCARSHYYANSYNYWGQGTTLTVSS VL: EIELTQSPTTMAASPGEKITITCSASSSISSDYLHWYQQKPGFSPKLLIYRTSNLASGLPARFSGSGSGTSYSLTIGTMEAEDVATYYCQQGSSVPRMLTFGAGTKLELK
0.58

Indicate the recorded OD450 value for this binder: F5.11.2 (antibody, human IgG1, V domains shown, human-murine chimeric antibody, human IgG1) VH: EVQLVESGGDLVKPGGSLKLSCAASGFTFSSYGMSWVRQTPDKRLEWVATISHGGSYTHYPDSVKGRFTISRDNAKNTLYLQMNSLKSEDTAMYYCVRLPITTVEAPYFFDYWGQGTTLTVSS VL: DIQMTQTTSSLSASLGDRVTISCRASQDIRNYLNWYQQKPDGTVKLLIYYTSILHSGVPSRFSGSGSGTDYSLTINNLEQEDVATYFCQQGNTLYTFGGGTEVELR
0.56

Tell me its OD450 given F4.272.13 (antibody, human IgG1, V domains shown, human-murine chimeric antibody, human IgG1) VH: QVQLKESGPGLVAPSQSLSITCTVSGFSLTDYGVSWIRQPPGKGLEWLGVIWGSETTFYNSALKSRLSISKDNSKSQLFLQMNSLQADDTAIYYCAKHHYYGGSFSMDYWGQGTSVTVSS VL: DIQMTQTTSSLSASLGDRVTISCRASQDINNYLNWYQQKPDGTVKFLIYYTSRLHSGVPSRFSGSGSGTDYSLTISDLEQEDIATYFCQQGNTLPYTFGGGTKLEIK as the entry.
1.56

Provide OD450 value for the following binder: F3.3.10 (antibody, human IgG1, V domains shown, human-murine chimeric antibody, human IgG1) VH: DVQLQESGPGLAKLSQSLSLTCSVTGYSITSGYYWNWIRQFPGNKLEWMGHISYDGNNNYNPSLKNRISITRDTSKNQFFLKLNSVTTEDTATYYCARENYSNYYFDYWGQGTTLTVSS VL: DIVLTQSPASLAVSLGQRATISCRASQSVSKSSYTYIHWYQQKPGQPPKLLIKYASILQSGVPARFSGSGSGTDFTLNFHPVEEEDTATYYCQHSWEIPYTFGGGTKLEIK
0.08

Note down OD450 recorded for F4.191.1 (antibody, human IgG1, V domains shown, human-murine chimeric antibody, human IgG1) VH: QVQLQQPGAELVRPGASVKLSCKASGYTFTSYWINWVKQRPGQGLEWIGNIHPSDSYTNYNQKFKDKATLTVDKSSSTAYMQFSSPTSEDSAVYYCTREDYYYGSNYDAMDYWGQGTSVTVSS VL: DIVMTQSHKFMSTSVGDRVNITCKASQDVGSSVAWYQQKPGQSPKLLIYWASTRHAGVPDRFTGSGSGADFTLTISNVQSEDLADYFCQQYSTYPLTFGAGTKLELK
0.57

Give the value of OD450 reported for the following: F4.107.12 (antibody, human IgG1, V domains shown, human-murine chimeric antibody, human IgG1) VH: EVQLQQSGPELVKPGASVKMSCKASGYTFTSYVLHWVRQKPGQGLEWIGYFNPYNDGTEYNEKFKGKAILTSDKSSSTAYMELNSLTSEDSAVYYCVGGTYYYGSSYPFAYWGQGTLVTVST VL: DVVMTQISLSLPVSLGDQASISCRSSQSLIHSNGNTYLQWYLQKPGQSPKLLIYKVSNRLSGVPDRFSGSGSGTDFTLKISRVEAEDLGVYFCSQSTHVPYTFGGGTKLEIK
1.33

Provide OD450 value for the following binder: F5.7.1 (antibody, human IgG1, V domains shown, human-murine chimeric antibody, human IgG1) VH: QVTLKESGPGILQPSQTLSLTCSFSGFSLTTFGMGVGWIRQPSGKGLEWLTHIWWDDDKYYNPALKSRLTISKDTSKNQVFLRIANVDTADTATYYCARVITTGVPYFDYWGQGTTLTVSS VL: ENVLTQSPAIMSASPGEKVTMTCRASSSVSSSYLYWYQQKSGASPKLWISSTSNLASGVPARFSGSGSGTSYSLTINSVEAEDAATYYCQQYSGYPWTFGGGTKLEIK
1.09

Name the recorded OD450 of the item F5.8.6 (antibody, human IgG1, V domains shown, human-murine chimeric antibody, human IgG1) VH: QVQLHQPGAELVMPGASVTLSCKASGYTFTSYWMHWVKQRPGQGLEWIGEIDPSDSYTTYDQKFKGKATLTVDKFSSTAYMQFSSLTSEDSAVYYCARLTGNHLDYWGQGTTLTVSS VL: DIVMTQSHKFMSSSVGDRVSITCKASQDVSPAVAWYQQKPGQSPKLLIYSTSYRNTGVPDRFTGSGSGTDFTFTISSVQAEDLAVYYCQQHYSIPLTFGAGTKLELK in your answer.
0.22

Read off the recorded OD450 for F6.2.9 (antibody, human IgG1, V domains shown, human-murine chimeric antibody, human IgG1) VH: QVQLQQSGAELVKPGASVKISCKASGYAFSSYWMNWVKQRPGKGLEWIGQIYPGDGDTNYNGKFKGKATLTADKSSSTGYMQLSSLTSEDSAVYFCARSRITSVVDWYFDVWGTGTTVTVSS VL: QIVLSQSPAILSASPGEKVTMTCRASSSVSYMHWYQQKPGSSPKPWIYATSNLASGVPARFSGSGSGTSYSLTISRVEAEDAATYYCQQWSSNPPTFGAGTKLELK
0.08
